Test system: Vero E6
testDetails: cell viability relative to DMSO; higher = less toxic
runParameters: 72 h; 10 nM
assayEndpoint: cell viability (%)

                                   molecule  testtarget   assayendpoint  testvalue
0  S=C(S)OC1CC2CC1C1CCCC21 (stereo not given)     Vero E6  cell viability         98
1  CC(=O)OCC(=O)[C@@]1(O)CC[C@H]2[C@@H]3CCC4=CC(=O)C=C[C@]4(C)[C@H]3[C@@H](O)C[C@@]21C [prednisolone-acetate]     Vero E6  cell viability        106
2          CN1CCC(=C2c3ccccc3CCc3sccc32)CC1     Vero E6  cell viability       98.6
3  NC(=O)N1c2ccccc2C=Cc2ccccc21 [carbamazepine]     Vero E6  cell viability       98.4
4  O=C(O)Cn1c2c(c3cc(F)ccc31)CN(C(=O)c1cccc3ccccc13)CC2     Vero E6  cell viability        102
